- System: Brassica rapa subsp. oleifera
- protocol_details: Herbicidal activity against Brassica rapa subsp. oleifera seedling assessed as root growth inhibition at 1 x10 ' -4 M measured after 7 days
- Assay type: functional
- conditions_used: 168 h, read-out: GI
property_name: inhibition of growth at 100 µM (%)
# number only, unit % dropped from output

Return the recorded inhibition of growth at 100 µM value; entry: O=C(CCl)NC(Cc1ccco1)C(=O)O (racemic)
51

Return the recorded inhibition of growth at 100 µM value; entry: CC(=O)NC(Cc1ccco1)C(=O)O (racemic)
19

Return the recorded inhibition of growth at 100 µM value; entry: `O=C(O)COc1ccc(Cl)cc1Cl`
100

Return the recorded inhibition of growth at 100 µM value; entry: O=C(CF)NC(Cc1ccco1)C(=O)O (racemic)
90

Return the recorded inhibition of growth at 100 µM value; entry: NC(CC(=O)O)c1ccco1 (racemic)
16

Return the recorded inhibition of growth at 100 µM value; entry: NC(Cc1ccco1)C(=O)O (racemic)
7

Return the recorded inhibition of growth at 100 µM value; entry: CC(=O)NC(CC(=O)O)c1ccco1 (racemic)
22

Return the recorded inhibition of growth at 100 µM value; entry: O=C(O)CC(NC(=O)CF)c1ccco1 (racemic)
43

Return the recorded inhibition of growth at 100 µM value; entry: O=C(O)CC(NC(=O)CCl)c1ccco1 (racemic)
55
